Source listed as the METLIN SMRT retention time set (Domingo-Almenara et al. 2019).

Kindly supply the reported RP-LC retention time values for the records listed here.
# protocol-text: gradient 5% acetonitrile 3 min, to 50% in 2 min, to 85% in 15 min, held 3 min, 100 µL/min
# details: column: Zorbax Extend-C18 2.1 x 50 mm; eluents: water / acetonitrile, 0.1% formic acid
All answers are understood in s, so give the number only.

Lab note: CC(C)n1nc(-c2nc(-c3cccc(Cl)c3)no2)ccc1=O gave RP-LC retention time of 1150

Lab note: COc1ccccc1-c1nc(Cn2c(=O)c3c(C)cc(C)nc3n(C)c2=O)c(C)o1 gave RP-LC retention time of 1070

Lab note: O=C(Nc1ccccc1SCc1nnc(-c2ccccc2)o1)c1ccc(Br)o1 gave RP-LC retention time of 1040

Lab note: COc1ccc(Cc2nnc(C3CCN(C(=O)c4ccco4)CC3)s2)cc1 gave RP-LC retention time of 703

Lab note: COc1ccc(CSc2nccc3c2ccn3CC(=O)N2CCN(c3ccccn3)CC2)cc1 gave RP-LC retention time of 592

Lab note: CCN1c2ccccc2C(=O)NC12CCN(C(=O)Cc1ccc(OC)cc1)CC2 gave RP-LC retention time of 805

Lab note: O=C(CN1CCc2ccccc2C1C(=O)N1CCCCC1)NCc1ccc(Cl)cc1 (centres undefined) gave RP-LC retention time of 910

Lab note: Cc1ccc(C)c(NC(=O)Cn2c(C)cc(-c3nnc(C4CC4)o3)c2C)c1 gave RP-LC retention time of 851

Lab note: CCOC(=O)C1CCN(c2nc(=O)n(CC(=O)Nc3ccc(C)cc3)c3ccccc23)CC1 gave RP-LC retention time of 843
